Origin of values: ChEMBL document CHEMBL1629536

# assay_summary: Solubility in sodium phosphate buffer at 0.1 M pH 7.4 at 25 degC
# Assay type: physicochemical
measured_quantity: solubility (mg/mL)

Some solved cases for reference:
CC(=O)N1CCN(CCCCOc2ccc(NC(=O)NC34CC5CC(CC(C5)C3)C4)cc2)CC1; 0.7
CC(=O)N1CCN(CCOc2cccc(NC(=O)NC34CC5CC(CC(C5)C3)C4)c2)CC1; 0.52
CS(=O)(=O)N1CCN(CCCCOc2cccc(NC(=O)NC34CC5CC(CC(C5)C3)C4)c2)CC1; 2.97

(1) CC(=O)N1CCN(CCCOc2cccc(NC(=O)NC34CC5CC(CC(C5)C3)C4)c2)CC1
(2) CN1CCN(CCCOc2cccc(NC(=O)NC34CC5CC(CC(C5)C3)C4)c2)CC1
# compare solubility for 1 vs 2 ; return the one with the smaller value Reply with the label of the item you choose.
1
